# TARGET_OR_SYSTEM: T1, human TGFβ3, mature dimeric form (human, UniProt P10600 301-412)
# T1 sequence: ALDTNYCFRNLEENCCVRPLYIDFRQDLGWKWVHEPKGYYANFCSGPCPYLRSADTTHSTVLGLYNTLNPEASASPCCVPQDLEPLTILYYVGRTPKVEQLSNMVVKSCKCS
# TEST_DESCRIPTION: cell-based or functional assay
Quick reference for HEKBlue TGFβ blocking IC50 among some binders
ASSAY_METRIC: HEKBlue TGFβ blocking IC50 (nM)

INSERT INTO assay_data (binder, assay_metric, censor_symbol, result) VALUES
  ('h4A11.v1 (antibody, human IgG1, kappa, N297G, V domains shown) VH: EQQLVESGGGLVQPGGSLRLSCAVSGFSLSSYTVNWVRQAPGKGLEWIGYISYGGSAYYASWANGRFTISKDSAKNSVYLQMNSLRAEDTAVYFCARHMQVGGAPTGSMAAFDPWGPGTLVTVSS VL: DAVLTQSPDSLAVSLGERATINCQSSQSVYNNNYLSWFQQKPGQPPKLLIYGASTLTSGVPDRFSGSGSGTDFTLTISSLQAEDVAVYYCAGGYSGSSDKYAFGGGTKVEIKR', 'HEKBlue TGFβ blocking IC50', '>', 200),
  ('h4A11.v8 (antibody, V domains shown) VH: EQQLQESGPGLVKPSETLSLTCTVTGFSLSSYTVNWVRQPAGKGLEWIGYISYGGSAYYASWANGRFTISKDSSKNQVSLKLSSVTAADTAVYFCARHMQVGGAPTGSMAAFDPWGPGTLVTVSS VL: DAVLTQTPLSSPVTLGQPASISCQSSQSVYNNNYLSWFQQRPGQPPRLLIYGASTLTSGVPDRFSGSGAGTDFTLKISRVEAEDVGVYYCAGGYSGSSDKYAFGGGTKVEIK', 'HEKBlue TGFβ blocking IC50', '=', 0.66),
  ('h4A11.v4 (antibody, human IgG1, kappa, N297G, V domains shown) VH: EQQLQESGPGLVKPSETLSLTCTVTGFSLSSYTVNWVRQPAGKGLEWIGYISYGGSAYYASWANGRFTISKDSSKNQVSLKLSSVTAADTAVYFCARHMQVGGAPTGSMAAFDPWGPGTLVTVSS VL: DAQLTQSPSSLSASVGDRVTITCQSSQSVYNNNYLSWFQQKPGKPPKLLIYGASTLTSGVPSRFSGSGSGTDFTLTISSLQPEDFATYYCAGGYSGSSDKYAFGGGTKVEIKR', 'HEKBlue TGFβ blocking IC50', '=', 0.08);
